Tested on: wild poinsettia (Euphorbia heterophylla)
assaySummary: General postemergence herbicidal activity, EPHHL
Assay type: in vivo
conditions: Euphorbia heterophylla, post-emergence, 336 h; 140 g ai/ha, postemergence spray, visual score after 14 days, 0 = no injury, 100 = complete kill; read-out: Post-emergent Weed Control EPHHL
measuredMetric: pest or weed control at 140 g/ha (%)
State the answer as a number, implicitly in %.

Sample answers from the record:
C=C(F)c1c(C(=O)OC)nc(-c2ccc(Cl)cc2)c(F)c1N :: 90
C=Cc1c(N)nc(-c2cc(F)c(Cl)cc2F)nc1C(=O)O :: 95
COc1c(Cl)ccc(-c2nc(N)c(C)c(C(=O)O)n2)c1F :: 100
C=Cc1c(N)cc(-c2ccc(Cl)cc2F)nc1C(=O)O :: 80

Problem: Consider the compound shown here: C=Cc1c(N)nc(C2CC2)nc1C(=O)OCC What is its recorded pest or weed control at 140 g/ha?
Result: 100

###

System: barnyardgrass (Echinochloa crus-galli)
assaySummary: General postemergence herbicidal activity, ECHCG
Type: in vivo
conditions: Echinochloa crus-galli, post-emergence, 336 h, 280 g ai/ha, postemergence spray, visual score after 14 days, 0 = no injury, 100 = complete kill; read-out: Post-emergent Weed Control ECHCG
The threshold is inclusive: pest or weed control at 280 g/ha of exactly 80% counts as fulfilled; values below receive not fulfilled.

See these solved cases before continuing.
C=Cc1c(N)nc(-c2cc(C)c(Cl)cc2F)nc1C(=O)OC :: not fulfilled
C=Cc1c(N)nc(-c2ccc(Cl)c(OC)c2)nc1C(=O)OC :: not fulfilled
C=Cc1c(N)nc(-c2ccc(Cl)c(OC(F)F)c2F)nc1C(=O)OC :: fulfilled

Problem: Does the reported pest or weed control at 280 g/ha for COC(=O)c1nc(-c2ccc(Cl)c(OC)c2F)nc(N)c1/C=C/SC fall at or above the 80% mark?
Result: not fulfilled

Problem: # bool: pest or weed control at 280 g/ha of CCc1c(N)nc(-c2ccc(Cl)c(OC)c2F)nc1C(=O)O >= 80%
Result: fulfilled

Problem: Does the compound CCOC(=O)c1nc(C2CC2)nc(N)c1C have recorded pest or weed control at 280 g/ha that is 80% or more?
Result: not fulfilled

Problem: Please check the record COC(=O)c1nc(-c2ccc(Cl)c(OC)c2F)nc(N)c1C(C)=O and state if its pest or weed control at 280 g/ha is at or above 80%.
Result: not fulfilled

Problem: Quick check, pest or weed control at 280 g/ha >= 80%? C=Cc1c(N)nc(-c2ccc(Cl)c(N(C)C)c2F)nc1C(=O)OC
Result: fulfilled

Problem: Item C=Cc1c(N)nc(-c2cc(OC)c(Cl)cc2F)nc1C(=O)OC with pest or weed control at 280 g/ha of 80% or above?
Result: fulfilled

Problem: # check: pest or weed control at 280 g/ha of COC(=O)c1nc(-c2ccc(Cl)c(OC)c2F)nc(N)c1/C=C/Br is greater than or equal to 80%
Result: not fulfilled

###

pest or weed control at 140 g/ha: recorded values
Test system: barnyardgrass (Echinochloa crus-galli)
assaySummary: General postemergence herbicidal activity, ECHCG
Format: in vivo
conditions: Echinochloa crus-galli, post-emergence, 336 h, 140 g ai/ha, postemergence spray, visual score after 14 days, 0 = no injury, 100 = complete kill; read-out: Post-emergent Weed Control ECHCG

C=Cc1c(N)nc(-c2ccc(Cl)c(OC)c2Cl)nc1C(=O)OC :: 90%
C=Cc1c(N)nc(-c2ccc(Cl)c(C(F)F)c2F)nc1C(=O)OC :: 100%
C=C(F)c1c(C(=O)OC)nc(-c2ccc(Cl)cc2)c(F)c1N :: 0%
COC(=O)c1nc(-c2ccc(Cl)c(OC)c2F)nc(N)c1C(C)F (stereo not shown) :: 30%
C=C(F)c1c(N)nc(-c2ccc(Cl)c(OC)c2F)nc1C(=O)OC :: 90%

Problem: Given the entry C#Cc1c(N)cc(-c2ccc(Cl)c(OC)c2F)nc1C(=O)OC , report its measured pest or weed control at 140 g/ha.
Result: 80%

Problem: Field request: pest or weed control at 140 g/ha | item: C=Cc1c(N)nc(C2CC2)nc1C(=O)O
Result: 30%
